Below, each entry is listed with its recorded max response.
- Tested on: HEK293
- protocol: Cytotoxic Profiling of Annotated Libraries Using Quantitative High-Throughput Screening (AID 1296008); note: % is set by controls: 0 for no effect and ±100 for the full control effect; nearly all actives have a fitted effect of over 60% in size
- condition summary: Five cell lines viability, CellTiter-Glo ATP luminescence, 48-72 h; hits give low values
Inconclusive results are not listed.
measurement name: max response (%)

- O=C(O)C1CCCN(CCC=C(c2ccccc2)c2ccccc2)C1 (centres undefined): 3.73
- COc1ccccc1OCC(O)COC(N)=O (centres undefined): 2.15
- O=S(=O)(c1cccc2cnccc12)N1CCCNCC1: -25.6
- CC(=O)Oc1ccccc1C(=O)Nc1ncc([N+](=O)[O-])s1: -13.9
- NC(=O)c1cccc(N)c1: -4.67
- COc1ccc(-c2ccc3cc(C(=O)O)ccc3c2)cc1C12CC3CC(CC(C3)C1)C2: 3.2
- CCN[C@H]1C[C@H](C)S(=O)(=O)c2sc(S(N)(=O)=O)cc21: -5.09
- CNS(=O)(=O)Cc1ccc2[nH]cc(CCN(C)C)c2c1: 2.84
- CCN1CCCC1CNC(=O)c1cc(S(N)(=O)=O)ccc1OC (centres undefined): -9.26
- CNNCc1ccc(C(=O)NC(C)C)cc1: 2.6
- CCC(=O)O[C@]1(C(=O)CCl)[C@@H](C)C[C@H]2[C@@H]3CCC4=CC(=O)C=C[C@]4(C)[C@@]3(F)[C@@H](O)C[C@@]21C: -0.886
- C#CCN[C@@H]1CCc2ccccc21: -23.7
- CC(C)OC(=O)C(C(=O)OC(C)C)=C1SC=CS1: -6.55
- CCn1cc(C(=O)O)c(=O)c2cc(F)c(N3CCN(C)CC3)cc21: 0.679
- CCN(CC)CCn1c(=O)c(Cc2ccc(OC)cc2)nc2ccccc21: -12.9
- NS(=O)(=O)c1cc2c(cc1Cl)NC(C(Cl)Cl)NS2(=O)=O (centres undefined): -0.123
- O=S(=O)(O)CCS: -11.9
- COC(=O)Nc1nc2ccc(C(=O)c3ccccc3)cc2[nH]1: -90.7
- O=C(NCC1CN(c2ccc(N3CCOCC3=O)cc2)C(=O)O1)c1ccc(Cl)s1 (centres undefined): -28.8
- CC1=C(C(=O)O)N2C(=O)[C@@H](NC(=O)C(N)c3ccccc3)[C@H]2SC1 (some centres undefined): -2.36
- CC1=CC(=O)c2ccccc2C1=O: 2.41
- CCCCOc1ccc(CC(=O)NO)cc1: -50.4
- COc1ccc2c(c1)c(CC(=O)OCC(=O)O)c(C)n2C(=O)c1ccc(Cl)cc1: -16.6
- CC[C@H](C)C(=O)O[C@H]1C[C@@H](C)C=C2C=C[C@H](C)[C@H](CC[C@@H]3C[C@@H](O)CC(=O)O3)[C@H]21: -37.5
- CC(C)NCC(O)c1ccc(NS(C)(=O)=O)cc1 (centres undefined): 0.785
- CCN(C)C(=O)Oc1cccc([C@H](C)N(C)C)c1: -9.47
- O=NN(CCCl)C(=O)NC1CCCCC1: 3.97
- CCc1cc(C(N)=S)ccn1: -11.8
- CCn1cc(C(=O)O)c(=O)c2cc(F)c(N3CCNCC3)nc21: -5.1
